Value source: patent US20210301026A1

Entries and their pKd values follow.
Molecular target: T1, monomeric human CSF1R ectodomain protein (human, UniProt P07333 20-517)
T1 construct: also called biotinylated monomeric human CSF1R
Assay: SPR Biacore, IgG captured, monomeric CSF1R analyte
A value of pKd is the negative decimal logarithm of a concentration given in moles per litre.

Retrieve pKd measured for MH32 (antibody, human IgG4, V domains shown, Deimmunized MH5 derivative, human IgG4(S228P)/Ckappa IgG; also called MN32) VH: QVQLVQSGAEVKKPGSSVKVSCKASGYTFSSAYMIWVRQAPGQGLEWMGDINPYNGGANYAQKFQGRVTITADESTSTAYMELSSLRSEDTAVYYCAREGPYFSNLYVMDYWGRGTLVTVSS VL: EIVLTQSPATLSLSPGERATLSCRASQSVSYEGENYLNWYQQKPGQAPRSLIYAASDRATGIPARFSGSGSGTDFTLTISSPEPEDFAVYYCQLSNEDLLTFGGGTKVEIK and print it.
9.21

Retrieve pKd measured for murine anti-CSF1R antibody 0301 (mu0301), v-domains in human IgG4(S228P) format (antibody, V domains shown) VH: EVQLQQSGPELVRPGASVKMSCKASGYTFTDNYMIWVKQSHGKSLEWIGDINPYNGGTTFNQKFKGKATLTVEKSSSTAYMQLNSLTSEDSAVYYCARESPYFSNLYVMDYWGQGTSVTVSS VL: NIVLTQSPASLAVSLGQRATISCKASQSVDYDGDNYMNWYQQKPGQPPKLLIYAASNLESGIPARFSGSGSGTDFTLNIHPVEEEDAATYYCHLSNEDLSTFGGGTKLEIK and print it.
10.62
